IC50 values for the compounds below.
# EXPERIMENTAL TARGET: Sodium/glucose cotransporter 1 (Homo sapiens, UniProt P13866)
# Sequence (P13866 whole entry): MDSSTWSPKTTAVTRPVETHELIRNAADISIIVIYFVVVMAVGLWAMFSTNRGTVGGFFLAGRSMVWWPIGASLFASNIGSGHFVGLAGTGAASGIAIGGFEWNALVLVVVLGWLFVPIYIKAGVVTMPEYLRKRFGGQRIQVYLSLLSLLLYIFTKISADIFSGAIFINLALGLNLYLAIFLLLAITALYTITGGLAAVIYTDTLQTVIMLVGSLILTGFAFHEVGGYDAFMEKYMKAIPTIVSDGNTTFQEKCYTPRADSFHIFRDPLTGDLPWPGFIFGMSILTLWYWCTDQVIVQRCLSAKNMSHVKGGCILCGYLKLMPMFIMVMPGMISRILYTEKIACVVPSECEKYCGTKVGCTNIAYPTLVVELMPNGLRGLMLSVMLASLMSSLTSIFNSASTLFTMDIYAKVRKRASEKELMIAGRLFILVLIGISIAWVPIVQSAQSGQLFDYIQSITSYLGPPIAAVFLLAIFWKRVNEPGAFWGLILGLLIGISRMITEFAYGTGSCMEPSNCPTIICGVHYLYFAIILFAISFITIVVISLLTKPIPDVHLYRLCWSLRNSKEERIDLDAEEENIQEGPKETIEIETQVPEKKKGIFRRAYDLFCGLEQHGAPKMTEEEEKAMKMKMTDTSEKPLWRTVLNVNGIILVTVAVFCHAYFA
# ASSAY PROTOCOL: Inhibition of human SGLT1 expressed in CHO cells assessed as inhibition of sodium-dependent methyl-alpha-D-[U-14C]glucopyranoside uptake after 2 hrs

Some compounds with recorded IC50:
>>> value_measured("CCc1ccc(Cc2cc([C@@H]3OC4(CC4)[C@@H](O)[C@H](O)[C@H]3O)ccc2C)cc1")
"190 nM"
>>> value_measured("COc1ccc(Cc2cc([C@@H]3OC(CO)(CO)[C@@H](O)[C@H](O)[C@H]3O)ccc2Cl)cc1")
"6800 nM"
>>> value_measured("COc1ccc(Cc2cc([C@@H]3OC4(COC4)[C@@H](O)[C@H](O)[C@H]3O)ccc2C)cc1")
"1540 nM"
>>> value_measured("CCOc1ccc(Cc2cc([C@@H]3OC4(COC4)[C@@H](O)[C@H](O)[C@H]3O)ccc2Cl)cc1")
"5600 nM"
>>> value_measured("CCc1ccc(Cc2cc([C@@H]3OC4(CNC4)[C@@H](O)[C@H](O)[C@H]3O)ccc2C)cc1")
"> 10000 nM"
>>> value_measured("CCc1ccc(Cc2cc([C@@H]3OC4(CS(=O)(=O)C4)[C@@H](O)[C@H](O)[C@H]3O)ccc2C)cc1")
"> 10000 nM"

[ask] Entry under review: `CCc1ccc(Cc2cc([C@@H]3O[C@]4(CCCO4)[C@@H](O)[C@H](O)[C@H]3O)ccc2C)cc1` . Reported IC50?
[reply] 1100 nM

[ask] Entry under review: `CCc1ccc(Cc2cc([C@@H]3OC4(COC4)[C@@H](O)[C@H](O)[C@H]3O)ccc2C)cc1` . Reported IC50?
[reply] 1500 nM

[ask] Entry under review: `COc1ccc(Cc2cc([C@@H]3O[C@H](CO)[C@@H](O)[C@H](O)[C@H]3O)ccc2Cl)cc1` . Reported IC50?
[reply] 240 nM

[ask] Entry under review: `COc1ccc(Cc2cc([C@@H]3O[C@H](C)[C@@H](O)[C@H](O)[C@H]3O)ccc2Cl)cc1` . Reported IC50?
[reply] 73 nM

[ask] Entry under review: `COc1ccc(Cc2cc([C@@H]3OC4(COC4)[C@@H](O)[C@H](O)[C@H]3O)ccc2Cl)cc1` . Reported IC50?
[reply] > 9600 nM

[ask] Entry under review: `COc1ccc(Cc2cc([C@@H]3OC4(CC4)[C@@H](O)[C@H](O)[C@H]3O)ccc2C)cc1` . Reported IC50?
[reply] 370 nM

Values were extracted from ChEMBL document CHEMBL1154987.
